- experiment: PAMPA permeability assay
- Type: in vitro ADME
- condition.summary: 16 h incubation, read-out: Permeability
- Method: The parallel artificial membrane permeability assay (PAMPA), an artificial membrane that simulates a biological membrane, was used. A 96-well membrane filter-based microtiter plate system with donor and acceptor compartments separated by the membrane was employed. The compounds were dissolved in 5% DMSO in phosphate-buffered saline (PBS) solution with Lucifer yellow, a dye used to assess membrane integrity. The solution was placed in the donor well, and PBS was added to the acceptor well. […]
quantity.measured: Papp at 16 h (×10⁻⁶ cm/s)
Numbers only, in ×10⁻⁶ cm/s.

[in] Give the measured Papp at 16 h of `c1ccc2nc(N3CCCC3)cnc2c1` .
[out] 0.77

----------
- experiment: PAMPA permeability assay
- Assay type: in vitro ADME
- condition.summary: read-out: PAMPA permeability
quantity.measured: Papp at 16 h

[in] Give the measured Papp at 16 h of c1ccc2nc(N3CCOCC3)cnc2c1 [Qx-294, 2-(morpholine)-quinoxaline] .
[out] ~3.5 ×10⁻⁶ cm/s
